Parameter: GI50. Scope: all listed entries.
- Test system: UACC-257
- assay-info: Cytotoxicity against Homo sapiens (human) UACC257 cells after 48 hr by sulforhodamine B assay
- Type: functional
- experimental-context: UACC-257, 48 h
measured-attribute: GI50 (µM)

molecular_string=ClCc1cccc(Cn2cnc3nc(Cl)nc(Cl)c32)c1 assayed_system=UACC-257 unit_abbreviation=µM assay_result=3.46
molecular_string=ClCc1cccc(Cn2cnc3c(Cl)ncnc32)c1 assayed_system=UACC-257 unit_abbreviation=µM assay_result=20.4
molecular_string=ClCc1ccc(Cn2cnc3ncnc(Cl)c32)cc1 assayed_system=UACC-257 unit_abbreviation=µM assay_result=1.58
molecular_string=Nc1nc(Cl)c2ncn(Cc3cccc(CCl)c3)c2n1 assayed_system=UACC-257 unit_abbreviation=µM assay_result=5.75
molecular_string=ClCc1ccccc1Cn1cnc2ncnc(Cl)c21 assayed_system=UACC-257 unit_abbreviation=µM assay_result=5.88
molecular_string=ClCc1ccc(Cn2cnc3nc(Cl)nc(Cl)c32)cc1 assayed_system=UACC-257 unit_abbreviation=µM assay_result=2.23
molecular_string=ClCc1ccccc1Cn1cnc2c(Cl)ncnc21 assayed_system=UACC-257 unit_abbreviation=µM assay_result=10.7
molecular_string=ClCc1ccccc1Cn1cnc2c(Cl)nc(Cl)nc21 assayed_system=UACC-257 unit_abbreviation=µM assay_result=1.82
molecular_string=ClCc1ccc(Cn2cnc3c(Cl)ncnc32)cc1 assayed_system=UACC-257 unit_abbreviation=µM assay_result=7.41
molecular_string=ClCc1ccc(Cn2cnc3c(Cl)nc(Cl)nc32)cc1 assayed_system=UACC-257 unit_abbreviation=µM assay_result=16.2
molecular_string=ClCc1cccc(Cn2cnc3c(Cl)nc(Cl)nc32)c1 assayed_system=UACC-257 unit_abbreviation=µM assay_result=1.86
molecular_string=ClCc1cccc(Cn2cnc3ncnc(Cl)c32)c1 assayed_system=UACC-257 unit_abbreviation=µM assay_result=1.94
molecular_string=ClCc1ccccc1Cn1cnc2nc(Cl)nc(Cl)c21 assayed_system=UACC-257 unit_abbreviation=µM assay_result=1.99

* * *

- Tested on: SK-MEL-2
- assay-info: Cytotoxicity against Homo sapiens (human) SK-MEL-2 cells after 48 hr by sulforhodamine B assay
- Assay type: functional
- experimental-context: SK-MEL-2, 48 h
Under this convention, Criterion met denotes LC50 (concentration killing 50% of cells) strictly below 9 µM and Criterion not met denotes LC50 (concentration killing 50% of cells) at or above 9 µM.

molecular_string=Nc1nc(Cl)c2ncn(Cc3ccccc3CCl)c2n1 cat="Criterion not met"
molecular_string=ClCc1ccccc1Cn1cnc2c(Cl)nc(Cl)nc21 cat="Criterion met"
molecular_string=ClCc1ccc(Cn2cnc3c(Cl)nc(Cl)nc32)cc1 cat="Criterion not met"
molecular_string=ClCc1cccc(Cn2cnc3nc(Cl)nc(Cl)c32)c1 cat="Criterion met"
molecular_string=ClCc1cccc(Cn2cnc3c(Cl)ncnc32)c1 cat="Criterion not met"
molecular_string=ClCc1cccc(Cn2cnc3ncnc(Cl)c32)c1 cat="Criterion met"
molecular_string=Nc1nc(Cl)c2ncn(Cc3cccc(CCl)c3)c2n1 cat="Criterion not met"
molecular_string=ClCc1ccc(Cn2cnc3c(Cl)ncnc32)cc1 cat="Criterion not met"
molecular_string=ClCc1ccc(Cn2cnc3ncnc(Cl)c32)cc1 cat="Criterion not met"
molecular_string=ClCc1cccc(Cn2cnc3c(Cl)nc(Cl)nc32)c1 cat="Criterion not met"
molecular_string=ClCc1ccccc1Cn1cnc2c(Cl)ncnc21 cat="Criterion not met"
molecular_string=ClCc1ccccc1Cn1cnc2ncnc(Cl)c21 cat="Criterion not met"
molecular_string=ClCc1ccccc1Cn1cnc2nc(Cl)nc(Cl)c21 cat="Criterion not met"
molecular_string=ClCc1ccc(Cn2cnc3nc(Cl)nc(Cl)c32)cc1 cat="Criterion met"
molecular_string=Nc1nc(Cl)c2ncn(Cc3ccc(CCl)cc3)c2n1 cat="Criterion not met"
